Biological target: NLRP3 (Homo sapiens, UniProt Q96P20)
Construct: purchased ICE YM2306T-H06MHS
Sequence (Q96P20 whole entry): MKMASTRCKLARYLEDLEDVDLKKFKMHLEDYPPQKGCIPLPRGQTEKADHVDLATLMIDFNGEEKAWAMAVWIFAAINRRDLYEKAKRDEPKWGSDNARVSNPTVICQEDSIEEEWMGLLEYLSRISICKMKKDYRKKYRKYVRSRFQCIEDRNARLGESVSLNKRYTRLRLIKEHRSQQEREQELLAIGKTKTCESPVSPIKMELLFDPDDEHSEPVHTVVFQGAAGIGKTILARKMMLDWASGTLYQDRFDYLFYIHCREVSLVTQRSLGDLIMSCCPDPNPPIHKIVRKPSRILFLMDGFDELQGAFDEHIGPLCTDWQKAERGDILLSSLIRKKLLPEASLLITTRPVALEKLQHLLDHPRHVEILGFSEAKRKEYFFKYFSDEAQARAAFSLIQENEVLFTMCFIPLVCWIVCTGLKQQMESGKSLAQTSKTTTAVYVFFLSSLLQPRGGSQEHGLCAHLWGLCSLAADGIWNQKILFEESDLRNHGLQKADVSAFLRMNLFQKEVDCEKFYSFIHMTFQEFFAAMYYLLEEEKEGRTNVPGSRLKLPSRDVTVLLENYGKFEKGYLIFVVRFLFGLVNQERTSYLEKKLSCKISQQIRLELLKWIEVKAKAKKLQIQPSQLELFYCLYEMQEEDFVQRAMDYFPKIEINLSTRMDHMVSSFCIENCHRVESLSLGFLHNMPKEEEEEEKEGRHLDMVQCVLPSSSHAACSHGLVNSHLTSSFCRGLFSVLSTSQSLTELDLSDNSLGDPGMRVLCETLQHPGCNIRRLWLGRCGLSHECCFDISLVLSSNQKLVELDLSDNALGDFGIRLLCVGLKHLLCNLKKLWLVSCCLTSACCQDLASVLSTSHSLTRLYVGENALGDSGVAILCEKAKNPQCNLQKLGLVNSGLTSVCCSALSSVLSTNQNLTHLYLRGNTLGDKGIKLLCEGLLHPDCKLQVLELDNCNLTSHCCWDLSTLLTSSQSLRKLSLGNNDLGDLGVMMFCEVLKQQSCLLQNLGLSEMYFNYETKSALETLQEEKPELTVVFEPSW
Assay: NLRP3 Enzymatic Activity ADP-Glo Assay (Example B-4)
Format: biochemical
Details: hydrolysis of ATP by NLRP3; NLRP3 15 nM, ATP 1 μM; read-out: NLRP3_ADP-Glo_IC50 (nM), Example B-4
Reported metric: IC50

Recorded IC50, per entry:
> print(dat)
                                   compound      data.value
1  Cc1cc2c(c(O)c1C1=NN=C(N[C@H]3C[C@](C)(N)C3)SC1)CC2  100 to 1000 nM
2  Cc1cc(C(F)(F)F)cc(O)c1C1=NN=C(N2CCC3CCN(C)CC32)SC1 (stereo not shown)    10 to 100 nM
3  Cc1cc2c(c(O)c1C1=NN=C(N[C@H]3C[C@@](C)(O)C3)SC1)COC2  100 to 1000 nM

For record `Cc1cc2c(c(O)c1C1=NN=C(N[C@H]3C[C@@](C)(N)C3)SC1)CC2` the listed IC50 is 10 to 100 nM

Source listed as patent US20260184704A1.
